B1: library; numbered along this chain (parent)
chain: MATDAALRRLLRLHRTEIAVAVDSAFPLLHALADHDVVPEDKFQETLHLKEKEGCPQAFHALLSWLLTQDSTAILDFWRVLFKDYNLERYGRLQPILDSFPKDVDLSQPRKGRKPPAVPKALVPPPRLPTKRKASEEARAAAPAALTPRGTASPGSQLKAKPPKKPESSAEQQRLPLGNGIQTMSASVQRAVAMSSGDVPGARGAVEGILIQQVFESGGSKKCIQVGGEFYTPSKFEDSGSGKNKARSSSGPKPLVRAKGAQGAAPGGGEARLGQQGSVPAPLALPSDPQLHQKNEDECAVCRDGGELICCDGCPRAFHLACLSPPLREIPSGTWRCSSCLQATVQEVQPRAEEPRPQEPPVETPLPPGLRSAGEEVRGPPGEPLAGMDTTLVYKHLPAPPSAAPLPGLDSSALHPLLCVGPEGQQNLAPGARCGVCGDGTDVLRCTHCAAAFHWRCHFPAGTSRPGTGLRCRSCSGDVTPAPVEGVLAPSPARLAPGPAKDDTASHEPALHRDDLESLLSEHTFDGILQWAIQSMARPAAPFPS

Variants of: B1
Assay: AIRE transcriptional activation functional score (insulin promoter-GFP; nonsense median 0, synonymous median 1) (normalised score); higher = higher AIRE activity (more reporter activation)
Details: with insulin promoter-GFP reporter in HEK293
measurement.name: AIRE transcriptional activation functional score
Just the number.

Examples with their reported AIRE transcriptional activation functional score follow.
1) A170S ... 0.78
2) P254R ... 0.606
3) R316E ... 1.28
4) S250K ... 0.556
5) P115D ... 0.0469

Consider the additional variant presented here.
In: Read off the recorded AIRE transcriptional activation functional score for L341E
Out: 0.957

Ref: the supplement of paper PMC12667976
